Value source: patent US6525001B1

- Tested on: lambsquarters (Chenopodium album)
- PROTOCOL_DETAILS: Test C
- Type: in vivo
- Design: key: 0 was no effect; 100 was complete control
- RUN_PARAMETERS: PREEMERGENCE, Rate 35 g/ha
OBSERVABLE: Plant response rating, Lambsquarters
I'd appreciate a reply containing only the number, no unit.

Cc1cnc(-n2ccc(C(F)(F)F)n2)nc1Cc1cccc(C(F)(F)F)c1 :: 0
Cc1cnc(-c2ccc(C(F)(F)F)cc2)nc1C(Cl)c1cccc(C(F)(F)F)c1 (racemic) :: 0

# molecule Cc1cnc(-n2cnc(C(F)(F)F)n2)nc1Cc1cccc(C(F)(F)F)c1 ; its Plant response rating, Lambsquarters = 100

# molecule Cc1cnc(-n2ccc(C(F)(F)F)n2)nc1C(=O)c1cccc(OC(F)(F)F)c1 ; its Plant response rating, Lambsquarters = 0

# molecule Cc1cnc(-c2ccc(C(F)(F)F)cc2)nc1Cc1cccc(OC(F)(F)F)c1 ; its Plant response rating, Lambsquarters = 0

# molecule Cc1cnc(-c2ccc(C(F)(F)F)cc2)nc1Cc1cccc(C(F)(F)F)c1 ; its Plant response rating, Lambsquarters = 100
